Molecular target: hyaluronidase from bovine testes type I-S (Bos taurus)
Sequence (Q2YDK3 36-553): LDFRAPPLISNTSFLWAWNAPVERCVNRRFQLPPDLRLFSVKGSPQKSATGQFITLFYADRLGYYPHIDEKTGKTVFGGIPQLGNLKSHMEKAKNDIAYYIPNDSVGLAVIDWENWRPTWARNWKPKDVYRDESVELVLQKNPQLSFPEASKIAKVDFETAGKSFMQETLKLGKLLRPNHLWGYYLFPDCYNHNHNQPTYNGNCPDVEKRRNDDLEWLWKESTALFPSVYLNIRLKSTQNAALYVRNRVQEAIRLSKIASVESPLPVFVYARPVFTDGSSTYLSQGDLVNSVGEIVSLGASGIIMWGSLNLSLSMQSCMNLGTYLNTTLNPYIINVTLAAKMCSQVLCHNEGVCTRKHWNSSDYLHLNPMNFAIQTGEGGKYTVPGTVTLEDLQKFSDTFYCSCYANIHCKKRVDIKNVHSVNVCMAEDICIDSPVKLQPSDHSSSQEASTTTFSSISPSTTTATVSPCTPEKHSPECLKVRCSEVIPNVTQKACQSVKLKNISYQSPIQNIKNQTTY
reported_endpoint: IC50 (µM)
Form entry: value (µM) — number only.

query: Record request: IC50 value, item O=c1c(O)c(-c2cc(O)c(O)c(O)c2)oc2cc(O)cc(O)c12
result: 29.9
